Kindly supply the reported EC50 values for the records listed here.
Target: T1, cynomolgus monkey CCR8 (cynomolgus monkey, UniProt G7NYJ2 1-355)
T1 construct: whole, on cells; also called CynoCCR8
T1 sequence (G7NYJ2 entry or part of it): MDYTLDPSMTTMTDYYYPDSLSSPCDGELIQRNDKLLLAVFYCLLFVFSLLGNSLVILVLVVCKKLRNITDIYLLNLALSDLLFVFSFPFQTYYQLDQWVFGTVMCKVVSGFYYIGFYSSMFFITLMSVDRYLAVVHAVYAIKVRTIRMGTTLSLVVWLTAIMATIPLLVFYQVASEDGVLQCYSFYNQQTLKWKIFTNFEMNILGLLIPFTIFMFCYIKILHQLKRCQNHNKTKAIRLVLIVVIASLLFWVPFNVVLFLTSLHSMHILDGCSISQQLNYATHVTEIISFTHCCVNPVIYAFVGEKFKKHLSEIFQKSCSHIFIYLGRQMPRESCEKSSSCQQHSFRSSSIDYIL
Assay: FACS, CHO-K1-CynoCCR8 cells
Output spec: scalar in nM, unitless text.

Query: Requested read-out: EC50. Entry: PR006157 (antibody, human IgG1, kappa, V domains shown) VH: EVQLVESGGGLVKPGGSLRLSCAASGFTFSTYAMNWVRQAPGKGLEWVGRIRSKSNYYATYYADSVKDRFTISRDDSKSTLYLQMNSLKTEDTAVYYCVRGKEIGNYYAMDFWGQGTTVTVSS VL: DIVMTQSPLSLPVTLGQPASISCRSSKSLLHSNAKIYLYWFQQRPGQSPRLLIYRMSNLASGVPDRFSGSGSGTDFTLKISRVEAEDVGVYYCMQHLEYPLTFGQGTKLEIKR
Response: 0.42

Query: Requested read-out: EC50. Entry: PR006156 (antibody, human IgG1, kappa, V domains shown) VH: EVQLVESGGGLVKPGGSLRLSCAASGFTFSTYAMNWVRQAPGKGLEWVGRIRSKSNNYATYYADSVKDRFTISRDDSKSTLYLQMNSLKTEDTAVYYCVRGKEIGNYYAMDFWGQGTTVTVSS VL: DIVMTQSPLSLPVTLGQPASISCRSSKSLLHSNAKIYLYWFQQRPGQSPRLLIYRMSNLASGVPDRFSGSGSGTDFTLKISRVEAEDVGVYYCMQHLEYPLTFGQGTKLEIKR
Response: 0.3

Query: Requested read-out: EC50. Entry: PR006154 (antibody, human IgG1, kappa, V domains shown) VH: EVQLVESGGGLVKPGGSLRLSCAASGFTFSTYAMNWVRQAPGKGLEWVGRIRSKSNNYATYYADSVKDRFTISRDDSKSTLYLQMNSLKTEDTAVYYCVRGKEHGNYYAMDFWGQGTTVTVSS VL: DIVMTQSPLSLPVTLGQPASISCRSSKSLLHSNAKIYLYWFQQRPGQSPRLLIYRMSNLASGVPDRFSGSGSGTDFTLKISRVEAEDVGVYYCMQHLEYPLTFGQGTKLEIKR
Response: 0.31

Query: Requested read-out: EC50. Entry: PR006161 (antibody, human IgG1, kappa, V domains shown) VH: EVQLVESGGGLVKPGGSLRLSCAASGFTFSTYAMNWVRQAPGKGLEWVGRIRSKSNYYATYYADSVKDRFTISRDDSKSTLYLQMNSLKTEDTAVYYCVRGKEHGKYYAMDFWGQGTTVTVSS VL: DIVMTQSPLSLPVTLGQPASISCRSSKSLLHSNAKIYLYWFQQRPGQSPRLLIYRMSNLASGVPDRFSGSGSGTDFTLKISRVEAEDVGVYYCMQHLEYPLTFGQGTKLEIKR
Response: 0.43
